# PROTOCOL: chemical genetic growth profiling, strain panel (AID 1159580);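 note: tested at 20 µM; growth read once vehicle control cultures reached saturation at 30 °C; 1 = growth at the plate median or of vehicle wells; lower values mean less growth of the strain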
# DETAILS: S. cerevisiae deletion strains, growth OD, locus YNL298W, strain CLA4, stronger effect = lower value
The campaign covered roughly 5,500 compounds. About 2,000 (36%) were called active. Not shown: some 18% with an inconclusive outcome. The list shows a part of the results.
# key: entry, value: normalized growth
Answer as a number with no unit attached.

| COMPOUND | normalized growth |
| --- | --- |
| CCOC(=O)C1C(C=C(C)C)C1(C)C (stereo not given) | 1.01 |
| O=C1CCc2cc(OCCCCc3nnnn3C3CCCCC3)ccc2N1 | 1 |
| COc1cc2c3cc1Oc1cc(ccc1O)C[C@@H]1c4c(cc(OC)c(O)c4Oc4ccc(cc4)C[C@@H]3N(C)CC2)CC[N+]1(C)C | 1 |
| CC1(C)O[C@@H]2CC3C4CCC5=CC(=O)C=C[C@]5(C)[C@@]4(F)[C@@H](O)C[C@]3(C)[C@]2(C(=O)CO)O1 (stereo not given in full) | 1.01 |

Continue with the next compound.
Quick one: normalized growth of C=C1C2CC[C@@]3(C)[C@H](c4ccoc4)OC(=O)C[C@]13O[C@H]1CC(=O)C(C)(C)[C@H](C(O)C(=O)OC)[C@@]21C (stereo not given in full) ? 1.01

---

# PROTOCOL: chemical genetic growth profiling, strain panel (AID 1159580);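 note: tested at 20 µM; growth read once vehicle control cultures reached saturation at 30 °C; 1 = growth at the plate median or of vehicle wells; lower values mean less growth of the strain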
# DETAILS: S. cerevisiae deletion strains, growth OD, locus YDR069C, strain doa4, stronger effect = lower value
Screen size: about 5,500 compounds; about 2,000 (36%) were called active. Inconclusive results (about 18%) are left out. The list shows a part of the results.
QUANTITY: normalized growth
Reply with just the number.

Would you please look over these solved cases?
| SMILES STRUCTURE | VALUE |
| --- | --- |
| CCCCCCCCCc1ccc(O)cc1 | 0.115 |
| COc1ccc(-c2cc(=O)c3cc(OC)ccc3o2)cc1 | 0.948 |
| O=c1c(-c2ccc(O)cc2)coc2cc(O)cc(O)c12 | 1.01 |

Now examine the next entry.
For the compound COc1ccc(-c2cc(=O)c3c(O)c(OC)c(OC)c(OC)c3o2)cc1 , what normalized growth is on record? 0.976

---

# PROTOCOL: chemical genetic growth profiling, strain panel (AID 1159580);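 note: tested at 20 µM; growth read once vehicle control cultures reached saturation at 30 °C; 1 = growth at the plate median or of vehicle wells; lower values mean less growth of the strain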
# DETAILS: S. cerevisiae deletion strains, growth OD, locus YAL040C, strain CLN3, stronger effect = lower value
Out of some 5,500 compounds screened, about 2,000 (36%) were called active. About 18% were inconclusive and are not listed. The list shows a part of the results.
Mark fulfilled only for normalized growth values smaller than 1; exact matches and larger values are not fulfilled.

Some solved entries appear below for comparison.
| SMILES STRUCTURE | LABEL CLASS |
| --- | --- |
| O=c1c(-c2ccc(O)cc2)coc2cc(O)cc(O)c12 | fulfilled |
| COc1ccc2c(c[n+](C)c3c4cc5c(cc4ccc23)OCO5)c1OC | fulfilled |

Shift focus to the following entry.
I'd appreciate it if you could check whether CN(C)CCC=C1c2ccccc2C=Cc2ccccc21 has normalized growth smaller than 1. not fulfilled

---

# PROTOCOL: chemical genetic growth profiling, strain panel (AID 1159580);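 note: tested at 20 µM; growth read once vehicle control cultures reached saturation at 30 °C; 1 = growth at the plate median or of vehicle wells; lower values mean less growth of the strain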
# DETAILS: S. cerevisiae deletion strains, growth OD, locus YDR392W, strain spt3, stronger effect = lower value
Out of some 5,500 compounds screened, about 2,000 (36%) were called active. Roughly 18% stayed inconclusive and do not appear here. The list shows a part of the results.
Catalogue of normalized growth readings, one per entry.
Give the figure by itself; no unit, no explanation.

Some compounds with recorded normalized growth:
| COMPOUND | QUANTITY | VALUE |
| --- | --- | --- |
| O=C(O)/C=C(\CC(=O)O)C(=O)O | normalized growth | 0.992 |
| COCCOC(=O)C1=C(C)NC(C)=C(C(=O)OC(C)C)C1c1cccc([N+](=O)[O-])c1 (stereo not given) | normalized growth | 0.977 |
| Cn1nnnc1SCC1=C(C(=O)O)N2C(=O)C(NC(=O)C(O)c3ccccc3)C2SC1 (stereo not given) | normalized growth | 0.873 |
| COc1ccc2cc3[n+](cc2c1OC)CCc1cc2c(cc1-3)OCO2 | normalized growth | 0.984 |
| CN(N=O)C(=O)N[C@@H]1[C@@H](O)[C@H](O)[C@@H](CO)O[C@@H]1O | normalized growth | 0.956 |
| C[n+]1cc2c3c(ccc2c2ccc4cc5c(cc4c21)OCO5)OCO3 | normalized growth | 0.11 |
| COc1cc2c(cc1OC)-c1cc3ccc(OC)c(OC)c3c[n+]1CC2 | normalized growth | 1.01 |
| COC(=O)C1=C(C)NC(C)=C(C(=O)OC)C1c1ccccc1[N+](=O)[O-] | normalized growth | 0.73 |

Request the reported normalized growth associated with COC(=O)C1=C(C)NC(C)=C(C(=O)OCCN(C)Cc2ccccc2)C1c1cccc([N+](=O)[O-])c1 (stereo not given) 0.968

Which normalized growth value is on record for COc1c2c(cc3c1OCO3)CC[N+](C)=C2 ? 0.93
